experimental.protocol: In vitro human liver microsomal stability assay
Assay type: in vitro ADME
experimental.conditions: human liver microsomes
recorded.metric: % Parent Remaining at 30 min

compound: O=C(c1csc(-c2cn[nH]c2)c1)N1C2CCC1CC(F)(c1ncccc1Cl)C2 (centres unmarked) [XX-13]
% Parent Remaining at 30 min: ++ (31-60% ++)

compound: O=C(c1csc(-c2cn[nH]c2)c1)N1C2CCC1CC(O)(c1cscn1)C2 (centres unmarked) [XX-36]
% Parent Remaining at 30 min: +++ (61-100% +++)

compound: O=C(c1csc(-c2cn[nH]c2)c1)N1C2CCC1CC(O)(c1cccnn1)C2 (centres unmarked) [XX-27]
% Parent Remaining at 30 min: +++ (61-100% +++)

compound: O=C(c1csc(-c2cn[nH]c2)c1)N1CCC(F)(c2ncccc2Cl)CC1 [YY-09]
% Parent Remaining at 30 min: +++ (61-100% +++)

compound: O=C(c1csc(-c2cn[nH]c2)c1)N1CCC(O)(c2ccncc2Cl)CC1 [YY-06]
% Parent Remaining at 30 min: ++ (31-60% ++)

compound: O=C(c1csc(-c2cn[nH]c2)c1)N1C2CCC1CC(F)(c1cccnn1)C2 (centres unmarked) [XX-43]
% Parent Remaining at 30 min: +++ (61-100% +++)

compound: O=C(c1csc(-c2cn[nH]c2)c1)N1CCC(O)(c2ccncc2F)CC1 [YY-07]
% Parent Remaining at 30 min: +++ (61-100% +++)

compound: O=C(c1csc(-c2cn[nH]c2)c1)N1C2CCC1CC(O)(c1ncco1)C2 (centres unmarked) [XX-37]
% Parent Remaining at 30 min: +++ (61-100% +++)

Using the record for O=C(c1csc(-c2cn[nH]c2)c1)N1C2CCC1CC(O)(c1nccs1)C2 (centres unmarked) [XX-29] , report its % Parent Remaining at 30 min.
+++ (61-100% +++)

And the next one, O=C(c1csc(-c2cn[nH]c2)c1)N1C2CCC1CC(O)(c1ccccn1)C2 (centres unmarked) [XX-01] ?
+++ (61-100% +++)
